# measured on: equine FcRn (large alpha subunit p51) in complex with equine beta-2-microglobulin (equine) (UniProt F6XZ61)
# assay info: SPR (Biacore), pH 6
Labelling field: enter Satisfied if recorded Kd is less than 20 nM. Enter Not satisfied if it equals or exceeds that cut-off.

IN: Report whether reported Kd is lower than 20 nM (strictly) for equine IgG7 D312R mutant (antibody, part only; not given: Variable domains, not shown: another chain or arm of the molecule) constant: ASTTAPKVFPLASHSAATSGSTVALGCLVSSYFPEPVTVSWNSGALTSGVHTFPSVLQSSGLYSLSSMVTVPASSLKSQTYICNVAHPASSTKVDKKIVIKECGGCPTCPECLSVGPSVFIFPPKPKDVLMISRTPTVTCVVVDVGHDFPDVQFNWYVDGVETHTATTEPKQEQNNSTYRVVSILAIQHKRWLSGKEFKCKVNNQALPAPVQKTISKPTGQPREPQVYVLAPHRDELSKNKVSVTCLVKDFYPTDIDIEWKSNGQPEPETKYSTTPAQLDSDGSYFLYSKLTVETNRWQQGTTFTCAVMHEALHNHYTEKSVSKSPGK
OUT: Satisfied

IN: Report whether reported Kd is lower than 20 nM (strictly) for equine IgG7 T286Q mutant (antibody, part only; not given: variable domains, not shown: another chain or arm of the molecule) constant: ASTTAPKVFPLASHSAATSGSTVALGCLVSSYFPEPVTVSWNSGALTSGVHTFPSVLQSSGLYSLSSMVTVPASSLKSQTYICNVAHPASSTKVDKKIVIKECGGCPTCPECLSVGPSVFIFPPKPKDVLMISRTPTVTCVVVDVGHDFPDVQFNWYVDGVETHQATTEPKQEQNNSTYRVVSILAIQHKDWLSGKEFKCKVNNQALPAPVQKTISKPTGQPREPQVYVLAPHRDELSKNKVSVTCLVKDFYPTDIDIEWKSNGQPEPETKYSTTPAQLDSDGSYFLYSKLTVETNRWQQGTTFTCAVMHEALHNHYTEKSVSKSPGK
OUT: Satisfied

IN: Report whether reported Kd is lower than 20 nM (strictly) for equine IgG7 Y436K mutant (antibody, part only; not given: variable domains, not shown: another chain or arm of the molecule) constant: ASTTAPKVFPLASHSAATSGSTVALGCLVSSYFPEPVTVSWNSGALTSGVHTFPSVLQSSGLYSLSSMVTVPASSLKSQTYICNVAHPASSTKVDKKIVIKECGGCPTCPECLSVGPSVFIFPPKPKDVLMISRTPTVTCVVVDVGHDFPDVQFNWYVDGVETHTATTEPKQEQNNSTYRVVSILAIQHKDWLSGKEFKCKVNNQALPAPVQKTISKPTGQPREPQVYVLAPHRDELSKNKVSVTCLVKDFYPTDIDIEWKSNGQPEPETKYSTTPAQLDSDGSYFLYSKLTVETNRWQQGTTFTCAVMHEALHNHKTEKSVSKSPGK
OUT: Not satisfied

IN: Report whether reported Kd is lower than 20 nM (strictly) for equine IgG7 K311H mutant (antibody, part only; not given: Variable domains, not shown: another chain or arm of the molecule) constant: ASTTAPKVFPLASHSAATSGSTVALGCLVSSYFPEPVTVSWNSGALTSGVHTFPSVLQSSGLYSLSSMVTVPASSLKSQTYICNVAHPASSTKVDKKIVIKECGGCPTCPECLSVGPSVFIFPPKPKDVLMISRTPTVTCVVVDVGHDFPDVQFNWYVDGVETHTATTEPKQEQNNSTYRVVSILAIQHHDWLSGKEFKCKVNNQALPAPVQKTISKPTGQPREPQVYVLAPHRDELSKNKVSVTCLVKDFYPTDIDIEWKSNGQPEPETKYSTTPAQLDSDGSYFLYSKLTVETNRWQQGTTFTCAVMHEALHNHYTEKSVSKSPGK
OUT: Satisfied

IN: Report whether reported Kd is lower than 20 nM (strictly) for equine IgG7 N434P mutant (antibody, part only; not given: Variable domains, not shown: another chain or arm of the molecule) constant: ASTTAPKVFPLASHSAATSGSTVALGCLVSSYFPEPVTVSWNSGALTSGVHTFPSVLQSSGLYSLSSMVTVPASSLKSQTYICNVAHPASSTKVDKKIVIKECGGCPTCPECLSVGPSVFIFPPKPKDVLMISRTPTVTCVVVDVGHDFPDVQFNWYVDGVETHTATTEPKQEQNNSTYRVVSILAIQHKDWLSGKEFKCKVNNQALPAPVQKTISKPTGQPREPQVYVLAPHRDELSKNKVSVTCLVKDFYPTDIDIEWKSNGQPEPETKYSTTPAQLDSDGSYFLYSKLTVETNRWQQGTTFTCAVMHEALHPHYTEKSVSKSPGK
OUT: Not satisfied
